- Tested on: SEM cells
- test: cell viability relative to DMSO control; higher = less cytotoxic
- cond: RPMI 5 mM glucose + 10% dialyzed FBS; 48 h; 15.4 µM
reported_property: cell viability (%)

1) COc1ccc([C@@H]2CNC(=O)C2)cc1OC1CCCC1 ... 97.6
2) COc1cc2nc(-c3ccc(N4CCN(C)CC4)cc3)nc(NCCN3CCOCC3)c2cc1OC ... 3.57
3) COc1cc(/C=C/C(=O)CC(=O)/C=C/c2ccc(O)c(OC)c2)ccc1O ... 34.8
4) CN(C(=O)c1ccc(F)cc1C(F)(F)F)C1CCN(c2nnc(-c3ccnn3C)c3ccccc23)CC1 ... 83.3
5) C[C@@H]1CN(CC(=O)N2CC(C)(C)c3ncc(Cc4ccc(F)cc4)cc32)[C@@H](CN2CCOC[C@H]2C)CN1 ... 94.5
6) CCOc1ccccc1OCCNC(C)Cc1ccc(OC)c([S+](N)(=O)[O-])c1 (stereo not drawn) ... 127
7) CCC1=C(C)CN(C(=O)NCCc2ccc(S(=O)(=O)NC(=O)N[C@H]3CC[C@H](C)CC3)cc2)C1=O ... 96
8) CC(C)[C@@H](N(CCCN)C(=O)C1=CC=C(C)C=C1)C/2=C(\CC3=CC=CC=C3)C(=O)C4=C(O2)C=C(Cl)C=C4 ... 18.5

FYI, the data here is from the supplement of paper PMC11451515.
